For each record, write down the corresponding Human GIPR cAMP EC50, HEK293T.
Molecular target: T1, full-length human GIPR with an N-terminal FLAG tag (human, UniProt P48546 22-466)
T1 sequence (looked up): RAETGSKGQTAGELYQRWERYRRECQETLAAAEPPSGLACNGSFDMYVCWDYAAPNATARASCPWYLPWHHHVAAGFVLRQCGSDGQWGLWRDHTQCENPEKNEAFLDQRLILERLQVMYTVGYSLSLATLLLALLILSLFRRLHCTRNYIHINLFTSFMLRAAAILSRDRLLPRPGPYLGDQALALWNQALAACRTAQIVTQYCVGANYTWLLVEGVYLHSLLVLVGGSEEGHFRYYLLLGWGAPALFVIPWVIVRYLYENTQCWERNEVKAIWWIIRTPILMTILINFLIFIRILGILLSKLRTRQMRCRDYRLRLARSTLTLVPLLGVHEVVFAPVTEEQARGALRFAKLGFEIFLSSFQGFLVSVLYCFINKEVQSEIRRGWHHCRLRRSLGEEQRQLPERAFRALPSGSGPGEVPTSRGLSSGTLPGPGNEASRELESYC
Experiment: cell-based or functional assay
Starred links: 1 amine or outer side, 2 acyl side, 3 side chain; linkers in the order of their positions; H or OH if unused. Non-standard residues stand in square brackets, D forms with d. Groups on a side chain read outwards from the residue. No end group written: not given here. *: point of attachment. C20 diacid = O=C(O)CCCCCCCCCCCCCCCCCCC(=O)*; C18 diacid = O=C(O)CCCCCCCCCCCCCCCCC(=O)*; γGlu = O=C(O)[C@H](CCC(=O)[*:2])N[*:1]; NMeY = CN[C@@H](Cc1ccc(O)cc1)C(=O)O; AEEA = NCCOCCOCC(=O)O; E1 = not defined here; K1 = not defined here; Aib = CC(C)(N)C(=O)O

Examples with their reported Human GIPR cAMP EC50, HEK293T follow.
{"columns": ["binder", "result"],
 "data": [
  ["YXEGTFISDYSIXXDRXAQADFVEWLLAQRG (N-terminus H; Aib at 2,13,17; Lys(G5-C18 diacid) at 14; C-terminal OH) [Compound No. 146]", "0.8 pM"],
  ["[NMeY][Aib]EGTFISDYSI[K1]LDR[E1]AQ[Aib]K([AEEA-AEEA-γGlu-γGlu-C18 diacid])FVNWLLAQRG-OH (reading uncertain; also: 'K1' at 13 and 'E1' at 17, not explained) [Compound No. 122]", "0.8 pM"],
  ["[NMeY][Aib]EGTFISDYSIALDR[Aib]K([GGPAPAP-C18 diacid])Q[Aib]DFVNWLLAQSPSSGAPPPS-OH [Compound No. 102]", "0.5 pM"],
  ["YXEGTFISDYSIXXDSAAQXDFVNWLLAQRG (N-terminus H; Aib at 2,13,20; Lys(G5-C18 diacid) at 14; C-terminal OH) [Compound No. 151]", "0.3 pM"]
]}

Now for a further binder.
Please report the recorded Human GIPR cAMP EC50, HEK293T for [NMeY][Aib]EGTFISDYSI[Aib]LDR[Aib]AQ[Aib]NFVNWLLAQK([2OEGgEgE-C20 diacid])PSSGAPPPS-NH2 [Compound No. 69] .
0.8 pM

These measurements were taken from patent US20230143604A1.
